Target: human Glucagon receptor (GCGR) (human, UniProt P47871)
Assay: cell-based or functional assay
Numbered stars: 1 amine (or outer) side, 2 acyl side, 3 side chain; on linkers, the order of the positions; unused ones are H or OH. Bridge positions count the residues as written; N and C are the ends. Square brackets hold non-standard residues; d marks the D form. Ends that are not written are not given here. R6me = (R)-2-amino-2-methyloct-7-enoic acid, C=CCCCC[C@@](C)(N[*:1])C(=O)[*:2]; S7 = C[C@@](CCCCCC=[*:3])(N[*:1])C(=O)[*:2]
Give GCGR EC50 human (cAMP activity assay) for every item shown.
Number in nM, nothing else.

Given the binder HXQGTFTSDKSKYLDERAAXDFVXWLLDT (as printed: HsQGTFTSDKSKYLDERAA*S5meDFV*S5meWLLDT-NH2; s = D-Serine (position 2); two *S5me (positions 20 and 24) cyclized to form a double bond containing ring; C-terminal amide) [peptide of SEQ ID NO: 19 (TP 558)] , what is its reported GCGR EC50 human (cAMP activity assay)?
2.15

Given the binder H[dS]QGTFTSDKSKYLDERAA[R6me]DFVQWL[S7]DT-NH2 (staple 20-27) [peptide of SEQ ID NO: 11 (TP 399)] , what is its reported GCGR EC50 human (cAMP activity assay)?
5

Given the binder H[dS]QGTFTSDKSKYLDE[R6me]AAQDFV[S7]WLLDT-NH2 (staple 17-24) [peptide of SEQ ID NO: 9 (TP398)] , what is its reported GCGR EC50 human (cAMP activity assay)?
5
